// values below are reported pIC50
molecular target: Zap-70 (Homo sapiens); construct: Kinases are expressed as either kinase domains or full length constructs; made in house; assay: Kinase inhibition assay (33P transfer), Zap-70; format: biochemical; details: read-out: Zap-1
Sequence (P43403 whole entry, species assumed, the tested form may be a part): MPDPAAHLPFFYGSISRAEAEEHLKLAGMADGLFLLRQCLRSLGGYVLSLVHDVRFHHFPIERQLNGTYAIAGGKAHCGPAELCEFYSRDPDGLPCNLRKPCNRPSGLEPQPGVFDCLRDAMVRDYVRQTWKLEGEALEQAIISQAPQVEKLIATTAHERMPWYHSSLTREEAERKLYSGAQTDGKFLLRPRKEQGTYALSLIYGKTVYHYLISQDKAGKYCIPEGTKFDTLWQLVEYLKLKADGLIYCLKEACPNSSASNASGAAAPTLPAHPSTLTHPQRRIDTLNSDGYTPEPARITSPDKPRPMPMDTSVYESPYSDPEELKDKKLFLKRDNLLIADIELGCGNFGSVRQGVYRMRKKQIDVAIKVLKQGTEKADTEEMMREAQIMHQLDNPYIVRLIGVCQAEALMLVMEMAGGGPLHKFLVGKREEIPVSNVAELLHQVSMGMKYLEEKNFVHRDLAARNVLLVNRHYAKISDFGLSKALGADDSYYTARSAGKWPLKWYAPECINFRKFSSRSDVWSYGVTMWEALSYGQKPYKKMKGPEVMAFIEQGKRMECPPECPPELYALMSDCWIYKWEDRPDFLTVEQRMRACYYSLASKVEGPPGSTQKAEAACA
pIC50: −log10 of the molar value.

Below: 5 molecules and their reported pIC50.
COc1ccc2c(c1)CCCN2c1ncnc(Nc2cc(OC)c(OC)c(OC)c2)n1 : < 4.97
COc1cc(Nc2ncnc(-n3c(NCc4ccccn4)nc4ccccc43)n2)cc(OC)c1OCCN1CCOCC1 : < 5.11
COc1cc(Nc2ncnc(-c3cccnc3N)n2)cc(OC)c1OC : < 4.90
O=C(O)Cc1cccc(Nc2ncnc(Nc3cc(-c4ccco4)n[nH]3)n2)c1 : 5.03 to 5.20
O=c1[nH]c2ccccc2n1-c1ncnc(Nc2cnc3ccccc3c2)n1 : < 4.90

Now, please, on to the next molecule.
The reported pIC50 of the molecule CCCN(CC1CC1)c1ncnc(Nc2cc(OC)c(OC)c(OC)c2)n1 was < 4.92

---

target: Lck (Homo sapiens); construct: Kinases are expressed as either kinase domains or full length constructs; made in house; assay: Kinase inhibition assay (33P transfer), Lck; type: biochemical; conditions: Table 3; read-out: Lck-1
Sequence (P06239 whole entry, species assumed, the tested form may be a part): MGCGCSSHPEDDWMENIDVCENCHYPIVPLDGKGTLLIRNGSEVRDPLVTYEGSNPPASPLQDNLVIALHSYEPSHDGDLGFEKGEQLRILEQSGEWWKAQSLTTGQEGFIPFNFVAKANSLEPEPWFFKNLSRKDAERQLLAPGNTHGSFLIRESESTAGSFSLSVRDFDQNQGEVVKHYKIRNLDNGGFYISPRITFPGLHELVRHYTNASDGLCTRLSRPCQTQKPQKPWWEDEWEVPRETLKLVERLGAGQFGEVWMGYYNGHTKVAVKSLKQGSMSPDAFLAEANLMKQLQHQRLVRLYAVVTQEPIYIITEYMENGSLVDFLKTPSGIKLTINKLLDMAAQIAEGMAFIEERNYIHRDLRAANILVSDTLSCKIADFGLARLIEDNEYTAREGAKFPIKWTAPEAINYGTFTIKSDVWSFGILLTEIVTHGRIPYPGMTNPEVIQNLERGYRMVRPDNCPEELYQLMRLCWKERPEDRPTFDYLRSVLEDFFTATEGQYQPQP
property_measured: IC50

COc1cc(Nc2ncnc(-n3c(Nc4ccc5[nH]ccc5c4)nc4ccccc43)n2)cc(OC)c1OC : < 0.787 µM
COc1cc(Nc2ncnc(-n3c(NC(C)=O)nc4ccccc43)n2)cc(OC)c1OC : 8.04 to 10.3 µM
NC(=O)c1cccc(Nc2ncnc(-n3c(=O)[nH]c4ccccc43)n2)c1 : > 13 µM
COc1cc(Nc2ncnc(N3CCN(c4ncccn4)CC3)n2)cc(OC)c1OC : > 10.6 µM
COc1ccc(Nc2ncnc(N(C/C=C/c3ccccc3)c3ccc(Cl)cc3)n2)cc1OC : 5.06 to 7.38 µM
COc1cc(Nc2ncnc(-c3ccc(N4CCOCC4)nc3)n2)cc(OC)c1OC : > 10.6 µM
COc1cc(Nc2ncnc(Nc3ccc4[nH]ccc4c3)n2)cc(OC)c1OC : < 1.02 µM
Nc1ncnc(Nc2ccc(F)cc2F)n1 : > 20.2 µM
COc1cc(Nc2ncnc(Nc3cc(C)[nH]n3)n2)cc(OC)c1OC : 1.12 to 6.72 µM
COc1cc(Nc2ncnc(Nc3ccc4[nH]ncc4c3)n2)cc(OC)c1OC : < 1.02 µM

Kindly review the next compound as well.
Value sought: IC50, system Lck (Homo sapiens), item Cc1ccc(Nc2ncnc(N)n2)cc1 . Result: > 22.4 µM

---

target: Lyn (Homo sapiens)
Sequence (P07948 whole entry, species assumed): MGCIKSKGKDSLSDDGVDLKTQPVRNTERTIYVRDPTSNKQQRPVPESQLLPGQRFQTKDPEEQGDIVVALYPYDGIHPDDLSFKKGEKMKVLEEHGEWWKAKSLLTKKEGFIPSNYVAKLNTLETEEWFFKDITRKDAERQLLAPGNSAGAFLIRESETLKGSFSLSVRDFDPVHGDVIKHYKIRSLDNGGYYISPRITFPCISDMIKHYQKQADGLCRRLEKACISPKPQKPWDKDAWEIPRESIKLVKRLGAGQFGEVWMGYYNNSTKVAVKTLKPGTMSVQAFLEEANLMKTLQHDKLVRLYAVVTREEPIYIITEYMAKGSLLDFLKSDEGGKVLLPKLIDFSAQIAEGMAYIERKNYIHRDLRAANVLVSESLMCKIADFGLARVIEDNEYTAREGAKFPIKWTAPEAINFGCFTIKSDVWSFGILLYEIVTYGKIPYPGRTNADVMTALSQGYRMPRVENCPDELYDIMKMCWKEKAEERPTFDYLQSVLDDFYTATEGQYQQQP
Readings of IC50 for the listed compounds

Consider the reported IC50 for these compounds:
COc1cc(Nc2ncnc(Nc3nnc(-c4ccccc4)[nH]3)n2)cc(OC)c1OC : > 10.7 µM
CCN(CC)CCOc1cc(Nc2ncnc(Nc3cc(OC)c(OC)c(OC)c3)n2)ccc1OC : < 0.802 µM
COc1cc(Nc2ncnc(-n3c(Nc4ccc5[nH]ccc5c4)nc4ccccc43)n2)cc(OC)c1OC : < 0.787 µM
COc1cc(Nc2ncnc(-n3c(NCc4ccccn4)nc4ccccc43)n2)cc(OC)c1OCCN1CCOCC1 : 6 to 7.71 µM

Lab note: COc1ccc(Nc2ncnc(Nc3ccc(C)c(O)c3)n2)cc1OC gave IC50 of 1.13 to 6.79 µM

Data point: COc1cc(Nc2ncnc(-n3ccc4cc(O)ccc43)n2)cc(OC)c1OC ; IC50 = < 1.02 µM

Notebook: COc1ccc(Nc2nc3ccccc3n2-c2ncnc(Nc3cc(OC)c(OC)c(OC)c3)n2)cc1 , IC50 read as > 9.01 µM

Lookup result for COc1cc(Nc2ncnc(-n3c(NCCc4ccccc4)nc4ccccc43)n2)cc(OC)c1OC ; measured IC50: 0.804 to 4.82 µM

Sure, the documented IC50 for COc1ccc(Nc2ncnc(Nc3cccc(C)c3)n2)cc1OC is < 1.19 µM

Notebook: COc1cc(Nc2ncnc(-n3c(NC(C)c4ccc(F)cc4)nc4ccccc43)n2)cc(OC)c1OC (stereo not shown) , IC50 read as 0.776 to 4.66 µM

Query COc1cc(Nc2ncnc(-n3cnc4ccccc43)n2)cc(OC)c1OC yields IC50 of 9.25 to 11.9 µM

# IC50 (compound: COc1cc(Nc2ncnc(-n3ccc4cc(F)ccc43)n2)cc(OC)c1OC ) is > 11.4 µM

Lab note: measured IC50 of Nc1nc2ccccc2n1-c1ncnc(Nc2ccc(N3CCOCC3)cc2)n1 was 9.01 to 11.6 µM

Sample COc1cc(Nc2ncnc(N3CCCC4CCCCC43)n2)cc(OC)c1OC (stereo not shown) ; IC50 observed: < 1 µM

The reported IC50 of the compound COc1cc(Nc2ncnc(-n3c(NC(C)C)nc4ccccc43)n2)cc(OC)c1OC was < 0.919 µM

get_value(item= CCOC(=O)Cc1cn(-c2ncnc(Nc3cc(OC)c(OC)c(OC)c3)n2)c2ccccc12 , readout=IC50) returns 0.863 to 5.18 µM

# IC50 of COc1cc(Nc2ncnc(-n3c(NCc4ccccc4Cl)nc4ccccc43)n2)cc(OC)c1OC = 0.772 to 4.63 µM

IC50 reported for this compound COc1cc(Nc2ncnc(-n3c(N[C@@H](CO)c4ccccc4)nc4ccccc43)n2)cc(OC)c1OC : < 0.779 µM

Input COc1cc(Nc2ncnc(Nc3ccc(F)c(Cl)c3)n2)cc(OC)c1OC . Output IC50: < 0.986 µM
